Quick note: these are IC50 numbers for system: Prostaglandin F2-alpha receptor (Homo sapiens)
Sequence (P43088 whole entry): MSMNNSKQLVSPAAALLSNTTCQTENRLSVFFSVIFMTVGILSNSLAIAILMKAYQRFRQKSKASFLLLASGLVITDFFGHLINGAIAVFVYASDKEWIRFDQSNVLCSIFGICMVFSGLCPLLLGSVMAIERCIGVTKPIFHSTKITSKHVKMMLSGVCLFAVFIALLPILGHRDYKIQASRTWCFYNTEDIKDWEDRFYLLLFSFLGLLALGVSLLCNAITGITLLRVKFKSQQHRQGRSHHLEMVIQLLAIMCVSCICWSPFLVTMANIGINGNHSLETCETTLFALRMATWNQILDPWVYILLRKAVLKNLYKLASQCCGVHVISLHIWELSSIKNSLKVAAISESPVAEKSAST
Use µM as the unit, but write only the number.

Solved entries (count: 3):
Compound	Target of assay	Readout	Measurement
CC12CCCC(/C=C/C(=O)NS(=O)(=O)c3cc(F)cc(F)c3)=C1N(Cc1ccc(F)cc1)C(=O)C2 (centres undefined)	Prostaglandin F2-alpha receptor (Homo sapiens)	IC50	4.2
CC12CCCC(/C=C/C(=O)NS(=O)(=O)c3cc(F)c(F)cc3F)=C1N(Cc1ccc(Cl)cc1Cl)C(=O)C2 (centres undefined)	Prostaglandin F2-alpha receptor (Homo sapiens)	IC50	7.6
COc1cccc(CN2C(=O)CC3(C)CCCC(/C=C/C(=O)NS(=O)(=O)c4ccc(F)c(F)c4)=C23)c1 (centres undefined)	Prostaglandin F2-alpha receptor (Homo sapiens)	IC50	6.4

Continue with the next compound.
q: Read off the recorded IC50 for CC12CCCC(/C=C/C(=O)NS(=O)(=O)c3cc(Cl)c(Cl)s3)=C1N(Cc1ccc(F)cc1)C(=O)C2 (centres undefined)
a: 27.4
